Measured values drawn from ChEMBL document CHEMBL3997839 for this set.

Assign pIC50 to each entry below.
system: HCC827; experiment: Antiproliferative activity against human HCC827 cells harboring EGFR E746_A750 deletion mutant after 48 hrs by MTT assay; type: functional, cell-based; settings: Homo sapiens, HCC827, 48 h
Note on pIC50: it is the negative log10 of concentration, concentration in mol/L.

Entry under review: O=C(Nc1ccc2nccc(Nc3cccc(Cl)c3)c2c1)C1CCC2(CC1)OCC1(OO2)C2CC3CC(C2)CC1C3 (centres undefined) . Reported pIC50?
4.50

Entry under review: O=C(Nc1ccc2nccc(Nc3cccc(Cl)c3)c2c1)C1CCC2(CC1)OOC1(O2)C2CC3CC(C2)CC1C3 (stereo in doubt; 13) . Reported pIC50?
4.92

Entry under review: "O=C(Nc1ccc2ncnc(Nc3cccc(Cl)c3)c2c1)C1CCC2(CC1)OOC1(CCCCC1)OO2" . Reported pIC50?
7.30

====

IC50 data for Epidermal growth factor receptor (Homo sapiens, UniProt P00533, L858R) follow.
Please give a number only; it is taken to be in nM.

Entry under review: O=C(Nc1ccc2nccc(Nc3cccc(Cl)c3)c2c1)C1CCC2(CC1)OOC1(O2)C2CC3CC(C2)CC1C3 (stereo in doubt; 13) . Reported IC50?
236

Entry under review: O=C(Nc1ccc2ncnc(Nc3cccc(Cl)c3)c2c1)C1CCC2(CC1)OOC1(O2)C2CC3CC(C2)CC1C3 (stereo not drawn) . Reported IC50?
48.9

====

Assign pIC50 to each entry below.
target: Epidermal growth factor receptor (Homo sapiens, UniProt P00533, L858R/T790M); test: Inhibition of recombinant human GST-tagged EGFR L858R/T790M double mutant cytoplasmic domain (668 to 1210 residues) expressed in baculovirus expression system by Z'-Lyte assay
pIC50: −log10 of the molar value.

Entry under review: O=C(O)C1CCC2(CC1)OOC1(OO2)C2CC3CC(C2)CC1C3 (stereo not given) . Reported pIC50?
< 5.00

Entry under review: O=C(Nc1ccc2ncnc(Nc3cccc(Cl)c3)c2c1)C1CCC2(CC1)OOC1(O2)C2CC3CC(C2)CC1C3 (stereo not given) . Reported pIC50?
< 5.00

Entry under review: "CC1(C)OOC2(CCC(C(=O)Nc3ccc4ncnc(Nc5cccc(Cl)c5)c4c3)CC2)OO1" . Reported pIC50?
< 5.00

Entry under review: "O=C(Nc1ccc2ncnc(Nc3cccc(Cl)c3)c2c1)C1CCCCC1" . Reported pIC50?
< 5.00

Entry under review: O=C(Nc1ccc2nccc(Nc3cccc(Cl)c3)c2c1)C1CCC2(CC1)OOC1(O2)C2CC3CC(C2)CC1C3 (stereo in doubt; 13) . Reported pIC50?
< 5.00

====

Assign pIC50 to each entry below.
system: L02; test: Antiproliferative activity against human HL7702 cells after 48 hrs by MTT assay; type: ADME, cell-based; conditions: Homo sapiens, L02, 48 h
Note on pIC50: it is the negative log10 of concentration, concentration in mol/L.

Entry under review: O=C(Nc1ccc2ncnc(Nc3cccc(Cl)c3)c2c1)C1CCC2(CC1)OOC1(OO2)C2CC3CC(C2)CC1C3 (centres undefined) . Reported pIC50?
5.24

Entry under review: O=C(Nc1ccc2nccc(Nc3cccc(Cl)c3)c2c1)C1CCC2(CC1)OOC1(O2)C2CC3CC(C2)CC1C3 (stereo in doubt; 13) . Reported pIC50?
4.59

Entry under review: "O=C(Nc1ccc2ncnc(Nc3cccc(Cl)c3)c2c1)C1CCC2(CC1)OOC1(CCCCC1)OO2" . Reported pIC50?
5.84

Entry under review: "CC1(C)OOC2(CCC(C(=O)Nc3ccc4ncnc(Nc5cccc(Cl)c5)c4c3)CC2)OO1" . Reported pIC50?
4.59

Entry under review: O=C(Nc1ccc2ncnc(Nc3cccc(Cl)c3)c2c1)C1CCC2(CC1)OOC1(O2)C2CC3CC(C2)CC1C3 (centres undefined) . Reported pIC50?
4.74

====

system: L02; experiment: Antiproliferative activity against human HL7702 cells after 48 hrs by MTT assay; format: ADME, cell-based; settings: l02
Assign IC50 to each entry below.

Entry under review: O=C(Nc1ccc2nccc(Nc3cccc(Cl)c3)c2c1)C1CCC2(CC1)OOC1(O2)C2CC3CC(C2)CC1C3 (stereo in doubt; 14) . Reported IC50?
> 50 µM

Entry under review: "Nc1ccc2ncnc(Nc3cccc(Cl)c3)c2c1" . Reported IC50?
> 100 µM

====

Assign IC50 to each entry below.
tested on: A-431; test: Antiproliferative activity against EGFR over-expressing human A431 cells after 48 hrs by MTT assay; assay type: functional, cell-based; details: Homo sapiens, A-431, 48 h
Please give a number only; it is taken to be in µM.

Entry under review: "CC1(C)OOC2(CCC(C(=O)Nc3ccc4ncnc(Nc5cccc(Cl)c5)c4c3)CC2)OO1" . Reported IC50?
19.6

Entry under review: "O=C(Nc1ccc2ncnc(Nc3cccc(Cl)c3)c2c1)C1CCC2(CC1)OOC1(CCCCC1)OO2" . Reported IC50?
3.99

Entry under review: O=C(Nc1ccc2ncnc(Nc3cccc(Cl)c3)c2c1)C1CCC2(CC1)OOC1(OO2)C2CC3CC(C2)CC1C3 (stereo not drawn) . Reported IC50?
8.06

Entry under review: O=C(Nc1ccc2ncnc(Nc3cccc(Cl)c3)c2c1)C1CCC2(CC1)OOC1(O2)C2CC3CC(C2)CC1C3 (stereo not drawn) . Reported IC50?
31.5

Entry under review: O=C(Nc1ccc2ncnc(Nc3cccc(Cl)c3)c2c1)C1CCC2(CC1)OCC1(OO2)C2CC3CC(C2)CC1C3 (stereo in doubt; 7) . Reported IC50?
22

====

PARAMETER: IC50 (nM)
Please give a number only; it is taken to be in nM.

I'm curious: which IC50 was measured for O=C(Nc1ccc2ncnc(Nc3cccc(Cl)c3)c2c1)C1CCC2(CC1)OOC1(O2)C2CC3CC(C2)CC1C3 (stereo unspecified) tested on Epidermal growth factor receptor (Homo sapiens, UniProt P00533)?
32.4

I'm curious: which IC50 was measured for O=C(Nc1ccc2ncnc(Nc3cccc(Cl)c3)c2c1)C1CCC2(CC1)OCC1(OO2)C2CC3CC(C2)CC1C3 (stereo in doubt; 8) tested on Epidermal growth factor receptor (Homo sapiens, UniProt P00533)?
117

I'm curious: which IC50 was measured for "O=C(Nc1ccc2ncnc(Nc3cccc(Cl)c3)c2c1)C1CCC2(CC1)OOC1(CCCCC1)OO2" tested on Epidermal growth factor receptor (Homo sapiens, UniProt P00533)?
83.8

I'm curious: which IC50 was measured for O=C(Nc1ccc2ncnc(Nc3cccc(Cl)c3)c2c1)C1CCC2(CC1)OOC1(OO2)C2CC3CC(C2)CC1C3 (stereo unspecified) tested on Epidermal growth factor receptor (Homo sapiens, UniProt P00533)?
380

I'm curious: which IC50 was measured for O=C(Nc1ccc2ncnc(Nc3cccc(Cl)c3)c2c1)C1CCC2(CC1)OCC1(OO2)C2CC3CC(C2)CC1C3 (stereo in doubt; 7) tested on Epidermal growth factor receptor (Homo sapiens, UniProt P00533)?
94.7

I'm curious: which IC50 was measured for "CC1(C)OOC2(CCC(C(=O)Nc3ccc4ncnc(Nc5cccc(Cl)c5)c4c3)CC2)OO1" tested on Epidermal growth factor receptor (Homo sapiens, UniProt P00533)?
11.4

I'm curious: which IC50 was measured for O=C(Nc1ccc2nccc(Nc3cccc(Cl)c3)c2c1)C1CCC2(CC1)OOC1(O2)C2CC3CC(C2)CC1C3 (stereo in doubt; 14) tested on Epidermal growth factor receptor (Homo sapiens, UniProt P00533)?
128

I'm curious: which IC50 was measured for O=C(Nc1ccc2nccc(Nc3cccc(Cl)c3)c2c1)C1CCC2(CC1)OOC1(O2)C2CC3CC(C2)CC1C3 (stereo in doubt; 13) tested on Epidermal growth factor receptor (Homo sapiens, UniProt P00533)?
178

I'm curious: which IC50 was measured for O=C(Nc1ccc2nccc(Nc3cccc(Cl)c3)c2c1)C1CCC2(CC1)OCC1(OO2)C2CC3CC(C2)CC1C3 (stereo unspecified) tested on Epidermal growth factor receptor (Homo sapiens, UniProt P00533)?
169

I'm curious: which IC50 was measured for "O=C(Nc1ccc2ncnc(Nc3cccc(Cl)c3)c2c1)C1CCCCC1" tested on Epidermal growth factor receptor (Homo sapiens, UniProt P00533)?
6.13

====

Assign pIC50 to each entry below.
system: HCC827; test: Antiproliferative activity against human HCC827 cells harboring EGFR E746_A750 deletion mutant after 48 hrs by MTT assay; format: functional, cell-based; conditions: Homo sapiens, HCC827, 48 h
Note on pIC50: it is the negative log10 of concentration, concentration in mol/L.

Entry under review: O=C(Nc1ccc2ncnc(Nc3cccc(Cl)c3)c2c1)C1CCC2(CC1)OOC1(OO2)C2CC3CC(C2)CC1C3 (centres undefined) . Reported pIC50?
6.51

Entry under review: "CC1(C)OOC2(CCC(C(=O)Nc3ccc4ncnc(Nc5cccc(Cl)c5)c4c3)CC2)OO1" . Reported pIC50?
6.59

Entry under review: "O=C(Nc1ccc2ncnc(Nc3cccc(Cl)c3)c2c1)C1CCCCC1" . Reported pIC50?
5.59

Entry under review: O=C(Nc1ccc2ncnc(Nc3cccc(Cl)c3)c2c1)C1CCC2(CC1)OOC1(O2)C2CC3CC(C2)CC1C3 (centres undefined) . Reported pIC50?
5.64
